Target: E. coli DNA Gyrase (Escherichia coli, UniProt P0AES4+P0AES6)
Assay: Inspiralis DNA gyrase inhibition assay
Procedure: Inhibitory potencies were investigated utilizing the Inspiralis assay on streptavidin-coated 96-well microtiter plates. First, the plates were rehydrated with buffer (20 mM Tris-HCl with pH 7.6, 0.01% w/v BSA, 0.05% v/v Tween 20, 137 mM NaCl) and the biotinylated oligonucleotide was then immobilized. After washing off the unbound oligonucleotide, the enzyme test was performed. […] The fluorescence was measured with a microplate reader (BioTek Synergy H4, excitation: 485 nm, emission: 535 nm). […]
Readout: IC50

> print(dat)
                                item.smiles  readout  result
1  CCCCCN(C)Cc1cc(C(=O)O)ccc1/C=C/C(=O)c1cc2cc(F)cc(NC)c2[nH]c1=O     IC50   12 nM
